Test system: SK-MEL-5
protocol_description: Antiproliferative activity against human SK-MEL-5 cells after 48 hrs by Cell titer blue viability assay
Type: functional, cell-based
conditions_used: SK-MEL-5, 48 h
experimental_endpoint: IC50 (µM)

Recorded IC50, per entry:
>>> quantitative_result("CC(C)CN(c1ccc(OC(C)C)cc1)S(=O)(=O)c1cc(C(=O)O)c(O)c2ccccc12")
300
>>> quantitative_result("COC(=O)c1cc(S(=O)(=O)N(CC(C)C)c2ccc(OC(C)C)cc2)c2ccccc2c1O")
300

A: CC(=O)OCOC(=O)c1cc(S(=O)(=O)N(CC(C)C)c2ccc(OC(C)C)cc2)c2ccccc2c1O
B: O=C(O)c1cc(S(=O)(=O)Nc2ccc(Br)cc2)c2ccccc2c1O
C: Cc1cc(Oc2ccc(N(Cc3ccccc3)S(=O)(=O)c3cc(C(=O)O)c(O)c4ccccc34)cc2)cc(C)c1Cl
Arrange these compounds by their IC50, starting with the largest number. Returns: the labels listed in the requested order.
B, C, A

###

protocol_description: Inhibition of Bcl-XL (unknown origin) after 3 hrs by fluorescence polarization competition assay
Design: species or system Homo sapiens
conditions_used: read-out: Ki
experimental_endpoint: Ki (nM)

Recorded Ki, per entry:
>>> quantitative_result("Cc1cc(Oc2ccc(NS(=O)(=O)c3cc(C(=O)O)c(O)c4ccccc34)cc2)cc(C)c1Cl")
480
>>> quantitative_result("Cc1cc(C)cc(Oc2ccc(NS(=O)(=O)c3cc(C(=O)O)c(O)c4ccccc34)cc2)c1")
390

1: Cc1cc(Oc2ccc(N(C3CCCC3)S(=O)(=O)c3cc(C(=O)O)c(O)c4ccccc34)cc2)cc(C)c1Cl
2: Cc1cc(Oc2ccc(N(CC(C)C)S(=O)(=O)c3cc(C(=O)O)c(O)c4ccccc34)cc2)cc(C)c1Cl
Which gives the smaller Ki number: 1 or 2 ? // return label of chosen record
2
(2: 170 nM, 1: 290 nM)

###

Species: Homo sapiens
protocol_description: Selectivity ratio of Ki for Bcl-XL (unknown origin) to Ki for His6-MBP tagged recombinant human Mcl-1 residues 172 to 327 expressed in Escherichia coli
experimental_endpoint: Ratio Ki

Recorded Ratio Ki, per entry:
>>> quantitative_result("COc1ccc(NS(=O)(=O)c2cc(C(=O)O)c(O)c3ccccc23)cc1")
6
>>> quantitative_result("Cc1ccc(Oc2ccc(NS(=O)(=O)c3cc(C(=O)O)c(O)c4ccccc34)cc2)cc1")
2.5
>>> quantitative_result("O=C(O)c1cc(S(=O)(=O)Nc2ccc(Br)cc2)c2ccccc2c1O")
19
>>> quantitative_result("Cc1cc(Oc2ccc(NS(=O)(=O)c3cc(C(=O)O)c(O)c4ccccc34)cc2)cc(C)c1Cl")
4.1
>>> quantitative_result("O=C(O)c1cc(S(=O)(=O)Nc2ccc([N+](=O)[O-])cc2)c2ccccc2c1O")
5.2
>>> quantitative_result("Cc1cc(Oc2ccc(N(CC(C)C)S(=O)(=O)c3cc(C(=O)O)c(O)c4ccccc34)cc2)cc(C)c1Cl")
2.1

a: Cc1cc(C)cc(Oc2ccc(NS(=O)(=O)c3cc(C(=O)O)c(O)c4ccccc34)cc2)c1
b: O=C(O)c1cc(S(=O)(=O)Nc2ccc(Oc3cccc(Br)c3)cc2)c2ccccc2c1O
c: O=C(O)c1cc(S(=O)(=O)Nc2ccc(Br)cc2Br)c2ccccc2c1O
d: O=C(O)c1cc(S(=O)(=O)NCc2ccc(Cl)cc2)c2ccccc2c1O
e: O=C(O)c1cc(S(=O)(=O)NCC2CCCCC2)c2ccccc2c1O
Arrange these compounds by their Ratio Ki, starting with the largest number. Returns: the labels listed in the requested order.
d, e, c, b, a

###

protocol_description: Inhibition of Bcl-XL (unknown origin) after 3 hrs by fluorescence polarization competition assay
Parameters: species or system Homo sapiens
conditions_used: read-out: Ki
experimental_endpoint: Ki (nM)

Recorded Ki, per entry:
>>> quantitative_result("O=C(O)c1cc(S(=O)(=O)Nc2ccc([N+](=O)[O-])cc2)c2ccccc2c1O")
23300
>>> quantitative_result("O=C(O)c1cc(S(=O)(=O)Nc2ccc(Oc3cccc(Br)c3)cc2)c2ccccc2c1O")
300
>>> quantitative_result("O=C(O)c1cc(S(=O)(=O)Nc2ccc(Oc3cccc4ccccc34)cc2)c2ccccc2c1O")
220
>>> quantitative_result("O=C(O)c1cc(S(=O)(=O)NCC2CCCCC2)c2ccccc2c1O")
77600

A: O=C(O)c1cc(S(=O)(=O)Nc2ccc(Oc3ccc(Cl)cc3Cl)cc2)c2ccccc2c1O
B: O=C(O)c1cc(S(=O)(=O)Nc2ccccc2C(F)(F)F)c2ccccc2c1O
C: O=C(O)c1cc(S(=O)(=O)Nc2ccc(Br)cc2Br)c2ccccc2c1O
D: Cc1ccc(Oc2ccc(NS(=O)(=O)c3cc(C(=O)O)c(O)c4ccccc34)cc2)cc1
E: Cc1cc(Oc2ccc(N(Cc3ccccc3)S(=O)(=O)c3cc(C(=O)O)c(O)c4ccccc34)cc2)cc(C)c1Cl
Please list these in order of increasing Ki. Thank you! Returns: the labels listed in the requested order.
A, E, D, C, B

###

protocol_description: Inhibition of Bcl-XL (unknown origin) after 3 hrs by fluorescence polarization competition assay
Set-up: species or system Homo sapiens
experimental_endpoint: Ki

>>> result("CN(C)S(=O)(=O)c1cc(C(=O)O)c(O)c2ccccc12")
"Not Active"
>>> result("NS(=O)(=O)c1cc(C(=O)O)c(O)c2ccccc12")
"Not Active"
>>> result("O=C(O)c1cc(S(=O)(=O)NCc2ccccc2)c2ccccc2c1O")
"Not Active"
>>> result("CC(C)Oc1ccc(NS(=O)(=O)c2cc(C(=O)O)c(O)c3ccccc23)cc1")
"Not Active"

Here is another compound to look at.
Record "O=C(O)c1cc(S(=O)(=O)Nc2ccccc2)c2ccccc2c1O" , field Ki: Not Active

###

protocol_description: Inhibition of Bcl-XL (unknown origin) after 3 hrs by fluorescence polarization competition assay
Set-up: species or system Homo sapiens
conditions_used: read-out: Ki
experimental_endpoint: Ki (µM)

>>> quantitative_result("O=C(O)c1cc(S(=O)(=O)NCc2ccc(Cl)cc2)c2ccccc2c1O")
338

I: O=C(O)c1cc(S(=O)(=O)Nc2ccc(Br)cc2)c2ccccc2c1O
II: O=C(O)c1cc(S(=O)(=O)Nc2cccc3ccccc23)c2ccccc2c1O
Compare I and II by numeric Ki and name the larger one. // return label of chosen record
II
(II: 110 µM, I: 51.4 µM)

A: CC(C)CN(c1ccc(OC(C)C)cc1)S(=O)(=O)c1cc(C(=O)O)c(O)c2ccccc12
B: O=C(O)c1cc(S(=O)(=O)Nc2ccc3ccccc3c2)c2ccccc2c1O
Which gives the smaller Ki number: A or B ? // return label of chosen record
A

###

Tested on: A-375
protocol_description: Antiproliferative activity against human A375 cells after 48 hrs by Cell titer blue viability assay
Type: functional, cell-based
conditions_used: A-375, 48 h
pIC50: −log10 of the molar value.
experimental_endpoint: pIC50

>>> quantitative_result("COC(=O)c1cc(S(=O)(=O)N(CC(C)C)c2ccc(OC(C)C)cc2)c2ccccc2c1O")
3.52

P: Cc1cc(Oc2ccc(N(Cc3ccccc3)S(=O)(=O)c3cc(C(=O)O)c(O)c4ccccc34)cc2)cc(C)c1Cl
Q: CC(C)CN(c1ccc(OC(C)C)cc1)S(=O)(=O)c1cc(C(=O)O)c(O)c2ccccc12
Which gives the smaller pIC50 number: P or Q ? // return label of chosen record
Q
(Q: 3.82, P: 4.30)

###

Species: Homo sapiens
protocol_description: Selectivity ratio of Ki for Bcl-XL (unknown origin) to Ki for His6-MBP tagged recombinant human Mcl-1 residues 172 to 327 expressed in Escherichia coli
experimental_endpoint: Ratio Ki

>>> quantitative_result("O=C(O)c1cc(S(=O)(=O)Nc2ccc3ccccc3c2)c2ccccc2c1O")
15

I: O=C(O)c1cc(S(=O)(=O)Nc2ccc(Oc3ccc(Cl)cc3Cl)cc2)c2ccccc2c1O
II: O=C(O)c1cc(S(=O)(=O)Nc2ccccc2C(F)(F)F)c2ccccc2c1O
III: O=C(O)c1cc(S(=O)(=O)Nc2cccc3ccccc23)c2ccccc2c1O
Please list these in order of increasing Ratio Ki. Thank you! Returns: the labels listed in the requested order.
I, II, III

A: O=C(O)c1cc(S(=O)(=O)Nc2ccc(Oc3cccc4ccccc34)cc2)c2ccccc2c1O
B: Cc1cc(Oc2ccc(N(C3CCCC3)S(=O)(=O)c3cc(C(=O)O)c(O)c4ccccc34)cc2)cc(C)c1Cl
Which gives the smaller Ratio Ki number: A or B ? // return label of chosen record
A
(A: 3.7, B: 8.8)
